experimental protocol: Solubility estimates by solvent aliquot addition, visual observation
Format: physicochemical
cond: ethyl acetate, organic solvent or mixture, thermodynamic from solid, ethyl acetate (EtOAc), ambient temperature; read-out: Solubility
metric name: solubility

Lookup: Endpoint output: solubility of Cc1noc(C)c1-c1cnc2c(-c3ccc(C(=O)O)cc3)cn([C@@H](C)c3ccccn3)c2c1 [Compound I Form D] . Value?
Found: < 2000 µg/mL

###

experimental protocol: Solubility estimates by solvent aliquot addition, visual observation
Type: physicochemical
cond: tetrahydrofuran, organic solvent or mixture, thermodynamic from solid, Tetrahydrofuran; read-out: Solubility
metric name: solubility (mg/mL)
Answer with a number only, understood to be in mg/mL.

Lookup: Endpoint output: solubility of `Cc1noc(C)c1-c1cnc2c(-c3ccc(C(=O)O)cc3)cn([C@@H](C)c3ccccn3)c2c1` . Value?
Found: 19

###

experimental protocol: Solubility estimates by solvent aliquot addition, visual observation
Format: physicochemical
cond: toluene, organic solvent or mixture, thermodynamic from solid, toluene, ambient temperature; read-out: Solubility
metric name: solubility

Lookup: Endpoint output: solubility of Cc1noc(C)c1-c1cnc2c(-c3ccc(C(=O)O)cc3)cn([C@@H](C)c3ccccn3)c2c1 [Compound I Form A] . Value?
Found: < 4000 µg/mL

###

experimental protocol: Solubility estimates by solvent aliquot addition, visual observation
Format: physicochemical
cond: dichloromethane, organic solvent or mixture, thermodynamic from solid, Dichloromethane; read-out: Solubility
Procedure: Aliquots of various solvents were added to measured amounts of Compound I or forms of Compound I as described herein with agitation (typically sonication) at ambient temperature until complete dissolution was achieved, as judged by visual observation. Solubilities were calculated based on the total solvent used to give a solution; actual solubilities may be greater because of the volume of solvent portions utilized or a slow rate of dissolution. […]
metric name: solubility

Lookup: Endpoint output: solubility of `Cc1noc(C)c1-c1cnc2c(-c3ccc(C(=O)O)cc3)cn([C@@H](C)c3ccccn3)c2c1` . Value?
Found: < 1000 µg/mL

###

experimental protocol: Solubility estimates by solvent aliquot addition, visual observation
Format: physicochemical
cond: ethanol, organic solvent or mixture, thermodynamic from solid, ethanol (EtOH), ambient temperature; read-out: Solubility
metric name: solubility (µg/mL)
Answer with a number only, understood to be in µg/mL.

Lookup: Endpoint output: solubility of Cc1noc(C)c1-c1cnc2c(-c3ccc(C(=O)O)cc3)cn([C@@H](C)c3ccccn3)c2c1 [Compound I Form D] . Value?
Found: 9000

###

experimental protocol: Solubility estimates by solvent aliquot addition, visual observation
Assay type: physicochemical
cond: ethanol, organic solvent or mixture, thermodynamic from solid, Ethanol; read-out: Solubility
metric name: solubility

Lookup: Endpoint output: solubility of `Cc1noc(C)c1-c1cnc2c(-c3ccc(C(=O)O)cc3)cn([C@@H](C)c3ccccn3)c2c1` . Value?
Found: < 1000 µg/mL

###

experimental protocol: Solubility estimates by solvent aliquot addition, visual observation
Format: physicochemical
cond: ethyl acetate, organic solvent or mixture, thermodynamic from solid, Ethyl acetate; read-out: Solubility
Description: Aliquots of various solvents were added to measured amounts of Compound I or forms of Compound I as described herein with agitation (typically sonication) at ambient temperature until complete dissolution was achieved, as judged by visual observation. Solubilities were calculated based on the total solvent used to give a solution; actual solubilities may be greater because of the volume of solvent portions utilized or a slow rate of dissolution. […]
metric name: solubility

Lookup: Endpoint output: solubility of `Cc1noc(C)c1-c1cnc2c(-c3ccc(C(=O)O)cc3)cn([C@@H](C)c3ccccn3)c2c1` . Value?
Found: < 1000 µg/mL
